Measurement type: melting point

Compound: CC1CC1C(=O)NCCC(=O)O (stereo unspecified)
Measurement type: melting point
Result: 94 to 96 °C

Compound: OC(c1ccc(Cl)cc1)c1cccnc1 (stereo unspecified)
Measurement type: melting point
Result: 106 to 108 °C

Compound: COc1ccc(NC(=O)COc2ccccc2C(=O)O)cc1Cl
Measurement type: melting point
Result: 229 to 231 °C

Compound: CCCCc1ccc(NC2=NCCCS2)cc1
Measurement type: melting point
Result: 70 to 72 °C

Compound: CSc1nc(-c2ccc(F)cc2)nc(C)c1C(=O)O
Measurement type: melting point
Result: 231 to 233 °C

Compound: Nc1ccc(Cl)c(S(=O)(=O)N2CCCC2)c1
Measurement type: melting point
Result: 116 to 118 °C

Compound: [N-]=[N+]=NC(C(=O)NC1CC1)c1ccc(F)cc1 (stereo unspecified)
Measurement type: melting point
Result: 53 to 55 °C

Compound: CCOc1cccc2c1C(=O)NC2=O
Measurement type: melting point
Result: 149 to 151 °C

Compound: O=C1C=CC(=O)N1c1cc([N+](=O)[O-])ccc1Cl
Measurement type: melting point
Result: 73 to 75 °C

Compound: Cn1c(CCl)nc2ccccc2c1=O
Measurement type: melting point
Result: 179 to 181 °C

Compound: Cc1ccc(-c2ccsc2C(=O)O)cc1
Measurement type: melting point
Result: 134 to 136 °C

Compound: CC1Cc2ccccc2N1S(=O)(=O)c1ccc(F)c(C(=O)O)c1 (stereo unspecified)
Measurement type: melting point
Result: 200 to 202 °C

Compound: CCc1c(C(=O)Nc2cc(S(=O)(=O)N(CC)CC)ccc2O)[nH]c(C)c1C(C)=O
Measurement type: melting point
Result: 229 to 231 °C

Compound: Nc1nn2cc(-c3ccccc3)nc2c2ccccc12
Measurement type: melting point
Result: 215 to 217 °C

Compound: CC1(c2ccc(OC(F)F)cc2)NC(=O)NC1=O (stereo unspecified)
Measurement type: melting point
Result: 141 to 143 °C

Compound: CSCCC1NC(=O)NC1=O (stereo unspecified)
Measurement type: melting point
Result: 108 to 110 °C

Compound: NC(=S)c1cnn(-c2ccccc2)c1
Measurement type: melting point
Result: 181 to 183 °C

Compound: CNc1cnccn1
Measurement type: melting point
Result: 44 to 46 °C

Compound: Cc1cc(Br)ccc1CC(=O)O
Measurement type: melting point
Result: 111 to 113 °C

Compound: NNC(=O)c1cc(-c2ccccc2)n[nH]1
Measurement type: melting point
Result: 207 to 209 °C

Compound: Cc1cc(S(=O)(=O)Nc2sc3c(c2C(N)=O)CCC(C)C3)ccc1Br (stereo unspecified)
Measurement type: melting point
Result: 218 to 220 °C

Compound: CC(C)n1[nH]ccc1=NC(=O)OCC(F)(F)F
Measurement type: melting point
Result: 77 to 79 °C

Compound: O=C(O)C1CC(=O)N(c2cccc(Cl)c2)C1 (stereo unspecified)
Measurement type: melting point
Result: 133 to 135 °C

Compound: C#CCNC(=O)CN1C(=O)C(=O)c2cc(Cl)ccc21
Measurement type: melting point
Result: 267 to 269 °C

Compound: COc1ccc2cc(-c3nn(-c4ccccc4)cc3C=O)ccc2c1
Measurement type: melting point
Result: 164 to 166 °C

Compound: Cc1nc2ccccc2c(N)c1C(C)C
Measurement type: melting point
Result: 123 to 125 °C

Compound: O=C(Nc1nc(C(F)(F)F)cs1)OCC(F)(F)F
Measurement type: melting point
Result: 78 to 80 °C

Compound: Cc1cc(C)nc(C#N)c1
Measurement type: melting point
Result: 43 to 45 °C

Compound: Cc1nnc(-c2ccc(N)cc2)o1
Measurement type: melting point
Result: 195 to 197 °C

Compound: O=C1Nc2cc(F)c([N+](=O)[O-])cc2C1=O
Measurement type: melting point
Result: 236 to 238 °C

Compound: O=C(CCCl)NCCc1ccccc1
Measurement type: melting point
Result: 56 to 58 °C

Compound: CN(Cc1ccccc1)S(N)(=O)=O
Measurement type: melting point
Result: 92 to 94 °C

Compound: CCc1ccc(C(=O)O)cc1S(C)(=O)=O
Measurement type: melting point
Result: 174 to 176 °C

Compound: COC(C)C(N)=S (stereo unspecified)
Measurement type: melting point
Result: 58 to 60 °C

Compound: CN(C)C(=O)CN1CCNCC1
Measurement type: melting point
Result: 35 to 37 °C

Compound: Cc1ccc(CC(=O)O)cc1O
Measurement type: melting point
Result: 105 to 107 °C

Compound: Cn1ncnc1-c1cccc(N)c1
Measurement type: melting point
Result: 93 to 95 °C

Compound: CC(C)c1nccn1Cc1cccc(N)c1
Measurement type: melting point
Result: 88 to 90 °C

Compound: CCOC(=O)COc1ccc(C#N)cc1OC
Measurement type: melting point
Result: 69 to 71 °C

Compound: Cc1ccc(Cl)c2ccc(Cl)nc12
Measurement type: melting point
Result: 61 to 63 °C

Compound: NC1(c2nn[nH]n2)CCCC1
Measurement type: melting point
Result: 229 to 231 °C

Compound: CC(Cl)c1nnc(-c2cccs2)o1 (stereo unspecified)
Measurement type: melting point
Result: 211 to 213 °C

Compound: O=C(O)C1CCSC1 (stereo unspecified)
Measurement type: melting point
Result: 60 to 62 °C

Compound: CS(=O)(=O)N1CCCCC1C(=O)O (stereo unspecified)
Measurement type: melting point
Result: 74 to 76 °C

Compound: CCNc1ccc(C)nn1
Measurement type: melting point
Result: 99 to 101 °C

Compound: O=C(O)CCCN1C(=O)CNC1=O
Measurement type: melting point
Result: 151 to 153 °C

Compound: O=C(O)c1c[nH]c2c(Br)ccc(Br)c2c1=O
Measurement type: melting point
Result: 271 to 273 °C

Compound: COC(=O)Cc1nnc(N)[nH]1
Measurement type: melting point
Result: 159 to 161 °C

Compound: O=C1COc2cccc(S(=O)(=O)Cl)c2N1
Measurement type: melting point
Result: 96 to 98 °C

Compound: CCOC(=O)Nc1cccc(O)c1
Measurement type: melting point
Result: 95 to 97 °C

Compound: O=c1[nH]c(CCl)nc2sc3c(c12)CCCC3
Measurement type: melting point
Result: 265 to 267 °C

Compound: Nc1nonc1-c1ccc(Cl)c(Cl)c1
Measurement type: melting point
Result: 143 to 145 °C

Compound: CN(C)C(=O)c1ccc(C(=O)O)cc1
Measurement type: melting point
Result: 178 to 180 °C

Compound: Cc1nc(-c2ccc(NC(=O)OCC(F)(F)F)cc2)cc(=O)[nH]1
Measurement type: melting point
Result: 246 to 248 °C

Compound: N#Cc1c(N2CCCC2)n[nH]c1N
Measurement type: melting point
Result: 208 to 210 °C

Compound: CCn1cnnc1CNC(=O)OCC(F)(F)F
Measurement type: melting point
Result: 102 to 104 °C

These entries and their values trace back to a melting point compilation (Tetko et al.).
